Where do the numbers come from? From a melting point compilation (Tetko et al.; mined from patent text by program, amines drawn as free bases though some values may be those of a salt).

Quick list: melting point per entry.

Known melting point results, listed for orientation:
COC(=O)Nc1ccc(C(=O)N(C)C)c(S(N)(=O)=O)c1
75 to 77 °C
CC(C(=O)Nc1ccc(Cl)cc1Cl)N1C(=O)C=CC1=O (stereo not drawn)
131 °C
O=c1c2c(N3CCNCC3)cc(Cl)cc2n(Cc2ccccc2)c(=O)n1Cc1ccccc1O
113 to 130 °C
O=C(NCO)C(Nc1ccccc1[N+](=O)[O-])c1c(Cl)cccc1Cl (stereo not drawn)
175 °C
CCOP(=O)(Cc1cc(C=O)ccc1O)OCC
88 to 88.5 °C

Note to self: melting point recorded for Cc1cc2c(c(C)c1O)C(C)(C)C(C)C2C (stereo not drawn) was 55 to 57 °C

Note to self: melting point recorded for C[C@@H]1Cc2ccsc2[C@H](C)N1CCCNC(=O)c1ccc(NS(C)(=O)=O)cc1 (relative stereo) was 148 to 150 °C

Note to self: melting point recorded for "CN(C)CCCCC(N)=O" was 86 to 87 °C

---

outcome-measure: melting point

Known melting point results, listed for orientation:
O=C1Cc2cc(NC(=O)C(=O)N3CCC(Oc4ccccc4)CC3)ccc2N1
78 to 81 °C
CCn1cc(C(=O)O)c(=O)c2cc(F)c(N3CC(N)C3)nc21
260 to 262 °C
CC(C)(C)OC(=O)c1cn(-c2cccnc2)cn1
81 to 82 °C
O=[N+]([O-])c1c(Cl)c(Cl)cc2c1OC(F)(F)O2
29 to 30 °C
C/C(=C\c1ccc(C(C)(C)C)cc1)CNc1cccc(-c2ccnc3c(C(=O)c4cccs4)cnn23)c1
135 to 137 °C
CCC(=O)N1CCN(C(=O)COC2c3ccccc3C(=O)N2c2ccc3ccc(OC)nc3n2)CC1 (configuration not stated)
160 °C

Consider the additional compound presented here.
Note to self: melting point recorded for "Cn1c(-c2ccccc2)nc2ncnn2c1=S" was 246 to 248 °C

---

Quick list: melting point per entry.

O=C(O)CN1C(=S)c2cccc3c(Br)ccc1c23
253 °C
Cc1c(Cc2ccccc2)c(=O)oc2cc(OC(C)c3nnn[nH]3)cc(OC(C)c3nnn[nH]3)c12 (stereo unspecified)
91 to 104 °C
CCc1cn(C(CC)CC)c(=O)c(N2CCc3cc(Cl)cc(Cl)c32)n1
136 to 137 °C

Note to self: melting point recorded for CNC(=S)C1(c2ccccn2)CCCS1 (stereo unspecified) was 131 °C

Note to self: melting point recorded for CS(=O)(=O)c1ccc(C(CC2CCOCC2)c2cnc(-c3ccccn3)[nH]2)cc1Cl (stereo unspecified) was 106 to 109 °C

---

Quick list: melting point per entry.

Known melting point results, listed for orientation:
C=CCN(CC=C)c1nc(NC(=O)c2c(Cl)cccc2Cl)n2oc(=O)nc2n1
133 to 135 °C
O=C(NN1CCCC1)C(CS)Cc1ccccc1 (stereo unspecified)
93 °C
CCn1c(=O)c2c(nc(/C=C/c3ccc(OC(=O)c4ccccc4)cc3)n2C)n(CC)c1=O
208 to 209 °C

Note to self: melting point recorded for "CCOC(=O)c1nnc2ccc(NS(C)(=O)=O)cc2c1O" was 274 to 275 °C

Note to self: melting point recorded for COC(=O)[C@H]1Cc2ccc(C)cc2C(=O)[C@H](c2ccccc2)S1 (relative stereo) was 136 to 137 °C

Note to self: melting point recorded for "COc1c(F)cc(CCC(=O)O)cc1F" was 72 to 73 °C

Note to self: melting point recorded for CCOC(=O)c1cc2sc(C3CCC(c4c(F)cccc4F)=N3)cc2s1 (stereo unspecified) was 107 °C

Note to self: melting point recorded for "CS(=O)(=O)Nc1ccc(CNC(=O)c2cccnc2Oc2ccc(F)cc2)cc1" was 107 to 109 °C

Note to self: melting point recorded for O=C1CCC(N2C(=O)c3cccc(CNC(=O)OCc4ccccc4)c3C2=O)C(=O)N1 (stereo unspecified) was 166 to 168 °C

Note to self: melting point recorded for "CCNC(=O)CCc1cnoc1-c1ccccc1" was 75 to 76 °C

Note to self: melting point recorded for "Cc1cccc(C)c1OC1CN(C(c2ccccc2)c2ccccc2)C1" was 99 to 100 °C

Note to self: melting point recorded for "COc1cc(Br)cc2c(Cl)cc(C)nc12" was 140 to 142 °C

Note to self: melting point recorded for "COCOc1ccc(COc2cc3c(cc2-c2cc(C=CC(=O)O)ccc2OC)C(C)(C)CCC3(C)C)cc1" was 106 to 108 °C

---

outcome-measure: melting point

Known melting point results, listed for orientation:
CCCCCCCCNC(=O)OCc1ccccc1[N+](=O)[O-]
70 to 71 °C
Cc1sc(CO)c(C)c1C
45 to 48 °C
N=C(N)c1ccc(-c2ccc(N3CCCN(CC(=O)O)C3=O)cc2)cc1
> 200 °C
O=C(NC1CCCCC1)C12CC3CC(CC(C3)C1)C2
199 to 200 °C
Cc1nc2ccc(Cl)cc2c(=O)n1CCCn1ccnc1
190 to 192 °C

Note to self: melting point recorded for "CCCCCCNC(=O)Oc1ccc2oc3ccccc3c2c1" was 109 to 110 °C

Note to self: melting point recorded for "CC1(C)CC(=O)c2cc(OCC(F)(F)F)c(OCC(F)(F)F)cc2O1" was 92 to 93 °C

Note to self: melting point recorded for "O=[N+]([O-])c1ccc(Sc2ncc[nH]2)cc1" was 207 to 209 °C

Note to self: melting point recorded for NCC(O)C1=CC2(CC2)c2ccccc21 (stereo unspecified) was 133 to 134 °C

Note to self: melting point recorded for "CC(C)c1csc(CO)n1" was 80 to 82 °C

Note to self: melting point recorded for CCC1(O)CC(=O)OCc2c1ccnc2OC (stereo unspecified) was 97 to 98 °C

Note to self: melting point recorded for "CCC(CC)n1nnc2c(Oc3c(C)cc(C)cc3C)nc(C)c(C)c21" was 127 to 129 °C

Note to self: melting point recorded for "COc1ccc(-c2cc3c(OC)c(Br)c(OC)cc3o2)cc1" was 107 to 109 °C

Note to self: melting point recorded for "C#CCNC(=O)c1ncn2c1[C@@H]1CCN1C(=O)c1sccc1-2" was 233 to 235 °C

Note to self: melting point recorded for "ON1C=CN(c2ccccc2)N1" was 284 to 285 °C

Note to self: melting point recorded for CC(=O)Nc1ccc2c3c(oc2c1)CC(C(=O)O)CC3 (stereo unspecified) was 229 to 230 °C

Note to self: melting point recorded for "CCN(c1nc(F)ccc1[N+](=O)[O-])C1CCN(Cc2ccccc2)CC1" was 99 to 100 °C

Note to self: melting point recorded for "CCOC(=O)c1cn(CC)c2cc(N3CCNCC3)c(F)cc2c1=O" was 178 to 180 °C

Note to self: melting point recorded for "O=C(O)Cc1ccc2c(c1)C(=O)c1ccccc1CN2" was 132 to 143 °C

Note to self: melting point recorded for "O=C(Cc1ccc(Cl)cc1)N1CCCCC1" was 85 to 85.5 °C

Note to self: melting point recorded for COc1ccccc1C(C)(O)c1ocnc1C (stereo unspecified) was 74 to 75 °C

Note to self: melting point recorded for "Cc1cccc(NC(=O)OC(C)(C)C)c1COc1cccn2c(C=O)c(C)nc12" was 189 to 191 °C

Note to self: melting point recorded for "COc1nn(-c2cccc(NC(C)=O)c2)c(=O)n(Cc2ccc3c(c2)OC(F)(F)O3)c1=O" was 184 °C

Note to self: melting point recorded for Cc1cc(NC(=O)CC(C)(C)C)c(C)c2c1OCC2c1ccc(C(C)C)cc1 (stereo unspecified) was 135 to 136 °C

---

Quick list: melting point per entry.

Note to self: melting point recorded for "O=c1cc2c(n[nH]1)-c1ccccc1SCC2" was 311 to 313 °C

Note to self: melting point recorded for "N#Cc1cnc2cnc(F)cc2c1Nc1ccc(Cl)cc1Cl" was 206 to 208 °C

Note to self: melting point recorded for "CCOC(=O)n1ccc2cc(N)ccc21" was 113 to 114 °C

Note to self: melting point recorded for COc1ccc(N2CCN(c3c(C)c(C)c4c(c3C)C(N3CCN(C)CC3)C(C)(C)O4)CC2)cc1 (stereo not given) was 94 to 96 °C

Note to self: melting point recorded for "COc1cc2ccc(C(=N)NO)cc2cc1OC" was 203 to 208 °C

Note to self: melting point recorded for CC(C)(C)OC(=O)C(CC(O)(C(F)(F)F)C(F)(F)F)NC(=O)OCc1ccccc1 (stereo not given) was 83 to 89 °C

---

Quick list: melting point per entry.

OCc1ccc(-c2ccc(-c3cn([C@H]4CN5CCC4CC5)nn3)cc2)s1
234 °C
O=C(O)CCc1[nH]nc2c1CCCC2
135 to 136 °C
CSC(Nc1cc(C(F)(F)F)cc(C(F)(F)F)c1)=C(C#N)S(=O)(=O)C(C)C
130 to 133 °C
CC1(C)[C@@]2(C)CC[C@]1(NCC(=O)N1CCC[C@H]1C#N)C(=O)OC2
174 to 177 °C
O=Cc1ccc(OCc2cccc(Cl)c2)cc1
51 to 54 °C
COc1ccc2c(c1)c(Cc1cc(=O)n(-c3ccc(Cl)c(Cl)c3)[nH]1)c(C)n2C(=O)c1ccc(Cl)cc1
123 to 125 °C
CCOC(=O)C(=O)c1csc(NC(=O)Nc2ccc(Cl)cc2)n1
230 to 234 °C

Note to self: melting point recorded for COC(=O)CN(C1(C(=O)C2CCCCC2)C=C(Cl)C=CC1)S(=O)(=O)c1ccc(OC)cc1 (stereo not drawn) was 115 to 116 °C
